System: MDA-MB-468 breast
Assay: NCI-60 one-dose screen, 48 h (100 = growth as untreated, 0 = no growth, -100 = all killed)
Details: 10 µM unless noted
About 83,000 compounds went through this panel and 20% of them were active in at least one assay; those are over-represented in the sample as a whole.
Criterion: growth strictly under 30%. Met: 1 (yes). Not met: 0 (no).

compound: O=C(Nc1ccc(OCc2nnc(-c3ccccc3)o2)c(F)c1)Nc1ccc(Cl)c(Cl)c1
assignedClass: 1 (yes)
//
compound: Cc1ccccc1CCO
assignedClass: 0 (no)
//
compound: CC(C)N1CN2C(=S)NC3C2N(C1)C(=S)N3C (stereo not drawn)
assignedClass: 0 (no)
//
compound: CNc1ccc(Br)c2c1C(=O)c1ccccc1C2=O
assignedClass: 0 (no)
//
compound: Cc1ccc(N(C(=O)CCc2c[nH]c3ccccc23)[C@H](C(=O)Nc2ccc(Cl)cc2)c2cccc([N+](=O)[O-])c2)cc1
assignedClass: 0 (no)
//
compound: CC[C@H](Nc1nc(N)nc(N)c1Cl)c1nc2cccc(NCc3ccc(C(=O)NO)cc3)c2c(=O)n1-c1ccccc1
assignedClass: 1 (yes)
//
compound: CCOC(=O)C1=C(C)NC(=O)NC1c1ccc(OCC(=O)N/N=C/c2ccc(Cl)cc2)cc1 (stereo not drawn)
assignedClass: 0 (no)
//
compound: COc1ccc(S(=O)(=O)N2CC3(COC3)C2)cc1NC(=O)c1[nH]c(C)c2c1CCCCC2=O
assignedClass: 1 (yes)

// provenance: PubChem BioAssay (NCI)
